Each entry below carries its reported GI50.
system: Ba/F3-Mock cells; experiment: Cell proliferation suppression test (CellTiter-Glo, GI50), Ba/F3-Mock; assay type: cell-based; settings: Mus musculus, BaF3, 72 h, 5 ng/mL IL-3, 3 days, N=4
Express it in nM; write the number only.

Answered examples (7):
C=CC(=O)N1CCC(Oc2cc3c(Nc4ccc(Oc5ccn(C(=O)NC6(C(F)(F)F)CC6)n5)cc4F)ncnc3cc2OC)CC1	8620
COc1cc2ncnc(Nc3ccc(Oc4cccc(-c5nnc(C)s5)c4)cc3F)c2cc1NC(=O)/C=C/CN(C)C	724
C=CC(=O)N1CCC(Oc2cc3c(Nc4ccc(Oc5ccn(-c6ccnc(OC)c6)n5)cc4F)ncnc3cc2OC)CC1	9590
C=CC(=O)N1CCC(Oc2cc3c(Nc4ccc(Oc5cccc(-c6cn(C)nn6)c5)cc4F)ncnc3cc2OC)CC1	9530
C=CC(=O)N1CCC(Oc2cc3c(Nc4ccc(Oc5ccn(C(=O)NC(C)C)n5)cc4F)ncnc3cc2OC)CC1	5660
CCOc1cc2ncnc(Nc3ccc(Oc4cccc(-c5nnc(C)o5)c4)cc3F)c2cc1NC(=O)/C=C/CN[C@@H]1CCOC1	2950
CCOc1cc2ncnc(Nc3ccc(Oc4cccc(-c5nnc(C6CC6)o5)c4)cc3F)c2cc1NC(=O)/C=C/CN(C)C	806

Field: next molecule
Record request: GI50 value, item "COc1cc2ncnc(Nc3ccc(Oc4nn(CC(=O)NC(C)(C)C)cc4F)cc3Cl)c2cc1NC(=O)/C=C/CN(C)C" 2840

====

Below, each entry is listed alongside its reported GI50.
system: Ba/F3-EGFR ins. SVD cells; experiment: Cell proliferation suppression test (CellTiter-Glo, GI50), Ba/F3-EGFR ins. SVD; assay type: cell-based; settings: Mus musculus, 72 h, 3 days, N=4
API: value field is a number in nM; no unit string.

Consider the worked cases shown below.
COc1cc2ncnc(Nc3ccc(Oc4ccn(C(=O)N5CCCC5)n4)cc3F)c2cc1NC(=O)/C=C/CN(C)C [Example 26]	53.7
CCOc1cc2ncnc(Nc3ccc(Oc4cccc(-c5nnc(C6CC6)o5)c4)cc3F)c2cc1NC(=O)/C=C/CN(C)C [Example 51]	20.5
COc1cc2ncnc(Nc3ccc(Oc4nc(-c5nnc(C6CC6)o5)cs4)cc3F)c2cc1NC(=O)/C=C/CN1CC[C@@H](F)C1 [Example 62]	210
C=CC(=O)N1CCC(Oc2cc3c(Nc4ccc(Oc5ccn(-c6cnc(C)c(F)c6)n5)cc4F)ncnc3cc2OC)CC1 [Example 27]	11.1
COc1cc2ncnc(Nc3ccc(Oc4nn(CC(=O)NC(C)(C)C)cc4F)cc3Cl)c2cc1NC(=O)/C=C/CN1CC[C@@H](F)C1 [Example 56]	4.6
CCOc1cc2ncnc(Nc3ccc(Oc4cccc(-c5nnc(CC)o5)c4)cc3F)c2cc1NC(=O)/C=C/CN(C)C [Example 42]	17.7

Quick one: GI50 for C=CC(=O)N1CCC(Oc2cc3c(Nc4ccc(Oc5ccn(C(=O)N[C@H](C)C(F)(F)F)n5)cc4F)ncnc3cc2OC)CC1 [Example 24] ? 9.9

Can you share its GI50? I mean this molecule: C=CC(=O)N1CCC(Oc2cc3c(Nc4ccc(Oc5ccn(-c6cnc(OC)nc6)n5)cc4F)ncnc3cc2OC)CC1 [Example 14] 13.5

====

tested on: Ba/F3-EGFR ins. ASV cells; experiment: Cell proliferation suppression test (CellTiter-Glo, GI50), Ba/F3-EGFR ins. ASV; type: cell-based; settings: Mus musculus, 72 h, 3 days, N=4
readout.name: GI50 (nM)
Response body: numeric value in nM, unit text excluded.

As a guide, the following entries are already answered.
CCOc1cc2ncnc(Nc3ccc(Oc4cccc(-c5nnc(C)o5)c4)cc3F)c2cc1NC(=O)/C=C/CN(C)C	5.5
C=CC(=O)N1CCC(Oc2cc3c(Nc4ccc(Oc5ccn(-c6ccc(F)nc6)n5)cc4F)ncnc3cc2OC)CC1	11.9
CCOc1cc2ncnc(Nc3ccc(Oc4cccc(-c5nnc(CC)o5)c4)cc3F)c2cc1NC(=O)/C=C/CN(C)C	5.1

Requested read-out: GI50. Entry: COc1cc2ncnc(Nc3ccc(Oc4nn(CC(=O)NC(C)(C)C)cc4F)cc3F)c2cc1NC(=O)/C=C/CN1CCC(F)C1 (racemic) 10.3

Fill in: GI50 of "C=CC(=O)N1CCC(Oc2cc3c(Nc4ccc(Oc5cccc(-c6nnc(C)o6)c5)cc4F)ncnc3cc2OC)CC1" is ___ 10.3

Dear colleague, I am looking for the recorded GI50 of the following compound: "C=CC(=O)N1CCC(Oc2cc3c(Nc4ccc(Oc5nc(-c6cnc(C)c(F)c6)cs5)cc4F)ncnc3cc2OC)CC1" 11.3

I have this compound here, "C=CC(=O)N1CCC(Oc2cc3c(Nc4ccc(Oc5cccc(-c6cn(C)nn6)c5)cc4Cl)ncnc3cc2OC)CC1" , and I need its recorded GI50. 40.6

====

// reported GI50 per item
tested on: Ba/F3-EGFR WT cells; assay: Cell proliferation suppression test (CellTiter-Glo, GI50), Ba/F3-EGFR WT; format: cell-based; settings: Mus musculus, 72 h, 100 ng/mL EGF, 3 days, N=4
Please give a number only; it is taken to be in nM.

Please review the following examples before continuing.
C=CC(=O)N1CCC(Oc2cc3c(Nc4ccc(Oc5nc(-c6ccc(OC)nc6)cs5)cc4F)ncnc3cc2OC)CC1 [Example 35]	213
C=CC(=O)N1CCC(Oc2cc3c(Nc4ccc(Oc5ccn(-c6cnc(OC)nc6)n5)cc4F)ncnc3cc2OC)CC1 [Example 14]	429
COc1cc2ncnc(Nc3ccc(Oc4cccc(CC(=O)NC(C)(C)C)c4)cc3F)c2cc1NC(=O)/C=C/CN1CCOCC1 [Example 49]	732
CCOc1cc2ncnc(Nc3ccc(Oc4cccc(-c5nnc(C)o5)c4)cc3F)c2cc1NC(=O)/C=C/CN[C@@H]1CCOC1 [Example 53]	229
CCOc1cc2ncnc(Nc3ccc(Oc4cccc(-c5nnc(CC)o5)c4)cc3F)c2cc1NC(=O)/C=C/CN(C)C [Example 42]	103

Look up GI50 for this molecule: COc1cc2ncnc(Nc3ccc(Oc4nc(CC(=O)NC(C)(C)C)cs4)cc3F)c2cc1NC(=O)/C=C/CN1CC[C@@H](OC)C1 [Example 61] 731

Would you mind telling me what GI50 value was observed for C=CC(=O)N1CCC(Oc2cc3c(Nc4ccc(Oc5nc(-c6ccc(CC)nc6)cs5)cc4F)ncnc3cc2OC)CC1 [Example 34] ? 276

====

test system: Ba/F3-EGFR ins. SVD cells; experiment: Cell proliferation suppression test (CellTiter-Glo, GI50), Ba/F3-EGFR ins. SVD; assay type: cell-based; conditions: Mus musculus, 72 h, 3 days, N=4
readout.name: log10 GI50 (log10 of the value in nM)
Base-10 log of GI50, unit nM.

Observe how each entry below is paired with its result.
C=CC(=O)N1CCC(Oc2cc3c(Nc4ccc(Oc5ccn(C(=O)NC(C)(CF)CF)n5)cc4F)ncnc3cc2OC)CC1 [Example 23]	1.04
COc1cc2ncnc(Nc3ccc(Oc4nc(-c5nnc(C6CC6)o5)cs4)cc3F)c2cc1NC(=O)/C=C/CN1CC[C@@H](OC)C1 [Example 63]	1.91
C=CC(=O)N1CCC(Oc2cc3c(Nc4ccc(Oc5cccc(-c6cn(C)nn6)c5)cc4Cl)ncnc3cc2OC)CC1 [Example 3]	1.48
C=CC(=O)N1CCC(Oc2cc3c(Nc4ccc(Oc5nc(-c6cnc(C)c(F)c6)cs5)cc4F)ncnc3cc2OC)CC1 [Example 11]	1.10
COc1cc2ncnc(Nc3ccc(Oc4nn(CC(=O)NC(C)(C)CF)cc4F)cc3Cl)c2cc1NC(=O)/C=C/CN(C)C [Example 48]	0.69
C=CC(=O)N1CCC(Oc2cc3c(Nc4ccc(Oc5cccc(-c6nnc(C)o6)c5)cc4F)ncnc3cc2OCF)CC1 [Example 19]	1.31

API: the following record is the query input.
Which log10 GI50 reading was recorded for the molecule C=CC(=O)N1CCC(Oc2cc3c(Nc4ccc(Oc5ccn(C(=O)NC(C)C)n5)cc4F)ncnc3cc2OC)CC1 [Example 6] ? 1.28

====

Measured GI50 of individual entries
system: Ba/F3-EGFR WT cells; assay: Cell proliferation suppression test (CellTiter-Glo, GI50), Ba/F3-EGFR WT; assay type: cell-based; conditions: Mus musculus, 72 h, 100 ng/mL EGF, 3 days, N=4
Kindly provide the numeric value in nM only, without the unit symbol.

The following molecules have reported results that may help.
C=CC(=O)N1CCC(Oc2cc3c(Nc4ccc(Oc5ccn(-c6ccc(F)nc6)n5)cc4F)ncnc3cc2OC)CC1 [Example 32]	162
C=CC(=O)N1CCC(Oc2cc3c(Nc4ccc(Oc5ccn(C(=O)NC(C)C)n5)cc4F)ncnc3cc2OC)CC1 [Example 6]	175
C=CC(=O)N1CCC(Oc2cc3c(Nc4ccc(Oc5nc(-c6cnc(C)c(F)c6)cs5)cc4F)ncnc3cc2OC)CC1 [Example 11]	290
COc1cc2ncnc(Nc3ccc(Oc4ccn(C(=O)N5CCCC5)n4)cc3F)c2cc1NC(=O)/C=C/CN(C)C [Example 26]	191
COc1cc2ncnc(Nc3ccc(Oc4cccc(-c5nnc(C)o5)c4)cc3F)c2cc1NC(=O)/C=C/CN(C)C [Example 39]	161
COc1cc2ncnc(Nc3ccc(Oc4nn(CC(=O)NC(C)(C)C)cc4F)cc3Cl)c2cc1NC(=O)/C=C/CN1CC[C@H](F)C1 [Example 57]	369

For the molecule C=CC(=O)N1CCC(Oc2cc3c(Nc4ccc(Oc5nc(-c6cnc(OC)nc6)cs5)cc4F)ncnc3cc2OC)CC1 [Example 16] , what GI50 is on record? 320

GI50 lookup needed for COc1cc2ncnc(Nc3ccc(Oc4nn(CC(=O)NC(C)(C)C)cc4F)cc3F)c2cc1NC(=O)/C=C/CN1CC(F)C1 [Example 59] , thanks. 468

GET /values?readout=GI50&item= C=CC(=O)N1CCC(Oc2cc3c(Nc4ccc(Oc5ccn(C(=O)NC(C)(C)C)n5)cc4F)ncnc3cc2OC)CC1 [Example 4] 78.3

Given COc1cc2ncnc(Nc3ccc(Oc4nn(CC(=O)NC(C)(C)CF)cc4F)cc3Cl)c2cc1NC(=O)/C=C/CN(C)C [Example 48] , state its recorded GI50. 638

What value of GI50 has been reported for the following molecule? C=CC(=O)N1CCC(Oc2cc3c(Nc4ccc(Oc5ccn(-c6ccc(C)nc6)n5)cc4F)ncnc3cc2OC)CC1 [Example 28] 290

Using the record for COc1cc2ncnc(Nc3ccc(Oc4cccc(-c5nnc(C(C)C)o5)c4)cc3F)c2cc1NC(=O)/C=C/CN(C)C [Example 43] , report its GI50. 69.8

// returns reported GI50 for input COc1cc2ncnc(Nc3ccc(Oc4cccc(-c5nnc(C)s5)c4)cc3F)c2cc1NC(=O)/C=C/CN(C)C [Example 44] 167

Need GI50 of COc1cc2ncnc(Nc3ccc(Oc4nn(CC(=O)NC(C)(C)C)cc4F)cc3Cl)c2cc1NC(=O)/C=C/CN1CCOCC1 [Example 54] , thanks. 2890
